Target: human α2A (α2 -C10)-adrenoceptor (Homo sapiens)
Sequence (P08913 1-465): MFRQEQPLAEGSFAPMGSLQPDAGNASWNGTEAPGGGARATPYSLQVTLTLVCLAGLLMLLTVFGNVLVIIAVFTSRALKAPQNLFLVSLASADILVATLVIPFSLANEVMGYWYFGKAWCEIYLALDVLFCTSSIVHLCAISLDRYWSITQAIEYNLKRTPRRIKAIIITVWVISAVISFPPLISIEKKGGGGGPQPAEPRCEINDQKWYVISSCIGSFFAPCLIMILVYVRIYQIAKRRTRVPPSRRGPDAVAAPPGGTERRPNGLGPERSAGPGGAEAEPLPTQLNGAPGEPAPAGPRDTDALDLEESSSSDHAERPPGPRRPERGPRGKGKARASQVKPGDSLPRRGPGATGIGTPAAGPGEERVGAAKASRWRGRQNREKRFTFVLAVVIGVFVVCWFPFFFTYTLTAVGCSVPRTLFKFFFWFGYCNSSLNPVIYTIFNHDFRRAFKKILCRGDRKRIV
Assay: [3H]-rauwolscine radioligand receptor binding (competition) assay, α2A-adrenoceptor
Settings: recombinant mammalian S115 cell line; 1 nM [3H]-rauwolscine; 50 mM KH2PO4 pH 7.5; 30 min at 25° C.; read-out: α2A aff (Ki values)
Observation type: pKi
Bear in mind: pKi is minus log10 of a mol/L concentration; give just that figure.

Here's what some known entries look like.
Endpoint output: pKi of CCCCCCCCCCCCCCOc1ccc2c(c1)CCN(C)C2 . Value?
6.58

Endpoint output: pKi of CN1CCc2cc(OCC3CCCCC3)ccc2C1 . Value?
6.01

Endpoint output: pKi of CCCCCCCCCCCCCCOc1cccc2c1CN(C)CC2 . Value?
4.60

Endpoint output: pKi of CN1CCc2c(cccc2OCC2CCCCC2)C1 . Value?
6.12

Endpoint output: pKi of CCCCCCCCCCCCCCOc1cccc2c1CCN(C)C2 . Value?
5.19

Okay, now this compound:
Endpoint output: pKi of CN1CCc2c(cccc2OCc2ccc(F)c(F)c2)C1 . Value?
6.50

* * *

Molecular target: human α2A (α2 -C10)-adrenoceptor (Homo sapiens)
Experiment: [3H]-rauwolscine radioligand receptor binding (competition) assay, α2A-adrenoceptor
Conditions: recombinant mammalian S115 cell line; 1 nM [3H]-rauwolscine; 50 mM KH2PO4 pH 7.5; 30 min at 25° C.; read-out: α2A aff (Ki values)
Protocol: The affinity of the test compounds on the α2 -adrenoceptor was established using the recombinant mammalian S115 cell line expressing the human α2A (α2 -C10)-adrenoceptor (7) in a radioligand receptor binding assay. The cells were harvested and suspended in 30 v/w of 50 mM Tris with 5 mM EDTA (pH 7.5 at 4° C.) and homogenized in Teflon-glass homogenizer. Cell homogenate was then centrifuged twice at 47,800×g (Sorvall RC-5C) for 30 min at 4° C. with re-suspension by two strokes in Tris/EDTA buffer. […]
Rule for this label: 1.0 means Ki is less than 0.5 µM; 0.0 means Ki is at least 0.5 µM.

These solved cases illustrate the format of a correct answer.
Find out if reported Ki for CN1CCc2cccc(OCC3CCCCC3)c2C1 is less than 0.5 µM
1.0

Find out if reported Ki for CN1CCc2cc(OCCCCCC#N)ccc2C1 is less than 0.5 µM
0.0

***
Find out if reported Ki for CCCCOc1cccc2c1CCN(CCC)C2 is less than 0.5 µM
1.0

Find out if reported Ki for CN1CCc2c(cccc2OCCCCCC#N)C1 is less than 0.5 µM
0.0

Find out if reported Ki for CN1CCc2cc(OCc3ccc(F)c(F)c3)ccc2C1 is less than 0.5 µM
0.0
